Target: T1, GRIP1_2, Q9Y3R0
T1 sequence (Q9Y3R0 145-248, limits assumed, looked up): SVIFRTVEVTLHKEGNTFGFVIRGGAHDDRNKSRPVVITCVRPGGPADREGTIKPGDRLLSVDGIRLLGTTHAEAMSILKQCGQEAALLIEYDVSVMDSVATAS
Test: holdup assay
Parameters: key: below the threshold = too weak to quantify, mostly under pKd 3.1 to 4
Conditions: plain residues with an end cap or a label only (N-terminal biotin on a linker: ado-ado)
readout: pKd

[[record]]
binder = "EKCGKEFSEF [PRKACA, P17612]"
testvalue = "below the threshold"

[[record]]
binder = "PPGKHLVTEV [KCNA7, Q96RP8]"
testvalue = "below the threshold"

[[record]]
binder = "PYSESDDDWC [CACNA1A, O00555]"
testvalue = 3.62

[[record]]
binder = "MQHQRTHTRV [ZSCAN30, Q86W11]"
testvalue = "below the threshold"

